Each recorded value in this set is attributed to patent US20190248900A1.

# target system: T1, ITGA6-Fc
# T1 construct: Fc fusion
# T1 sequence (P23229 whole entry, species assumed, looked up): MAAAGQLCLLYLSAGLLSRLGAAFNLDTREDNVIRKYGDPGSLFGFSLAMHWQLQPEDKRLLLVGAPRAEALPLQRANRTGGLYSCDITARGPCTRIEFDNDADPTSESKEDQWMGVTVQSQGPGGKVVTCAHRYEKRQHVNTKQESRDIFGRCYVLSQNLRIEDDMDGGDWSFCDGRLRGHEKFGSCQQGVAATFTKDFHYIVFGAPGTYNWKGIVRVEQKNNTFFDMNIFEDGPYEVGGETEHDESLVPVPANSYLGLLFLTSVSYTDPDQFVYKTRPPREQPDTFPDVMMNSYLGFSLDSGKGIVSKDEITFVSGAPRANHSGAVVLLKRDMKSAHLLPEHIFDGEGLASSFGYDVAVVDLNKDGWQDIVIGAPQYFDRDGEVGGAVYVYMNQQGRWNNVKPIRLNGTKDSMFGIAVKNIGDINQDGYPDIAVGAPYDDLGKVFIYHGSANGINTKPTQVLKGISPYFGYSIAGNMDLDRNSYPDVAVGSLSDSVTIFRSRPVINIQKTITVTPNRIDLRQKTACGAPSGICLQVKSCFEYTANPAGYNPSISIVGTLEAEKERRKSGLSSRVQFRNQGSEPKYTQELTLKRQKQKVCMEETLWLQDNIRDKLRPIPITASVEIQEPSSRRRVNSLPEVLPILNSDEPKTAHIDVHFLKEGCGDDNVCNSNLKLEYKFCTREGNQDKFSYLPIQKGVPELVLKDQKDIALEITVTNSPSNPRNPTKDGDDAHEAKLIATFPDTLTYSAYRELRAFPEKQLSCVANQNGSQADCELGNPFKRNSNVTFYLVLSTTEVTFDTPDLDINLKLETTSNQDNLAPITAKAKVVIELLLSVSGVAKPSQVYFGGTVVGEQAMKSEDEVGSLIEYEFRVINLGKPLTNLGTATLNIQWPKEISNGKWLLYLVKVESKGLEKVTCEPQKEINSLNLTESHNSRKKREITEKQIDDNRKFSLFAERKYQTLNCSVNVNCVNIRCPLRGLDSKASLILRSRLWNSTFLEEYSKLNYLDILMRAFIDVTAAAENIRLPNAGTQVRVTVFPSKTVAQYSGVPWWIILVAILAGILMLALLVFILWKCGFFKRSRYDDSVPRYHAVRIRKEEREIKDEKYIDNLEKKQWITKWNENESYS
# assay procedure: scFv-phage ELISA
Form field: OD490 (one value per entry).
quantity name: OD490

{"columns": ["binder", "quantity name", "obs value"],
 "data": [
  ["PD1-52E8 (antibody, V domains shown, scFv-phage in the screening ELISA; whole IgG in the other assays) VH: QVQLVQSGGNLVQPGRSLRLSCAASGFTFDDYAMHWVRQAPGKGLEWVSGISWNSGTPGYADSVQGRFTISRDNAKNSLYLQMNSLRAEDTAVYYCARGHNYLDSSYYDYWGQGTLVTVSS VL: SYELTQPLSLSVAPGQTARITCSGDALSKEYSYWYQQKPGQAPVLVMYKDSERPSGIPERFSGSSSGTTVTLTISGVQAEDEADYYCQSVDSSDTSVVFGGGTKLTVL", "OD490", 0.1],
  ["PD1-31F3 (antibody, V domains shown, scFv-phage in the screening ELISA; later whole IgG) VH: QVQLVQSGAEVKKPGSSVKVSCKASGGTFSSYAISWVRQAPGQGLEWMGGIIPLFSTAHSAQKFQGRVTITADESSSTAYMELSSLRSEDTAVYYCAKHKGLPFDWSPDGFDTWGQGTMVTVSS VL: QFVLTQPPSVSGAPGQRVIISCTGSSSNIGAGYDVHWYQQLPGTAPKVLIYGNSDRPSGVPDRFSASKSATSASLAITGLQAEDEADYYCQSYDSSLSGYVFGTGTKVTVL", "OD490", 0.4],
  ["PD1-41C9 (antibody, V domains shown, scFv-phage in the screening ELISA; whole IgG in the other assays) VH: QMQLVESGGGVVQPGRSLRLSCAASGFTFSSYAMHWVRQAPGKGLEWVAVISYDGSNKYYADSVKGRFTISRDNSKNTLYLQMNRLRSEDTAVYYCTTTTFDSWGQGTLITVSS VL: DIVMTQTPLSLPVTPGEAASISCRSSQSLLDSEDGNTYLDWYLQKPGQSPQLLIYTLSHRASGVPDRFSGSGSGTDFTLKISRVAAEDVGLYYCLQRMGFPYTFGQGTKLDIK", "OD490", 0.5]
]}
